# key: entry, value: inhibition at 10 µM
measurementTarget: 5HT-uptake (Rattus norvegicus, UniProt P31652)
Construct: synaptosomes from rat brain regions were freshly isolated; from tissue; host or cells: P2 synaptosome fraction from rat brain regions
Sequence (P31652 whole entry): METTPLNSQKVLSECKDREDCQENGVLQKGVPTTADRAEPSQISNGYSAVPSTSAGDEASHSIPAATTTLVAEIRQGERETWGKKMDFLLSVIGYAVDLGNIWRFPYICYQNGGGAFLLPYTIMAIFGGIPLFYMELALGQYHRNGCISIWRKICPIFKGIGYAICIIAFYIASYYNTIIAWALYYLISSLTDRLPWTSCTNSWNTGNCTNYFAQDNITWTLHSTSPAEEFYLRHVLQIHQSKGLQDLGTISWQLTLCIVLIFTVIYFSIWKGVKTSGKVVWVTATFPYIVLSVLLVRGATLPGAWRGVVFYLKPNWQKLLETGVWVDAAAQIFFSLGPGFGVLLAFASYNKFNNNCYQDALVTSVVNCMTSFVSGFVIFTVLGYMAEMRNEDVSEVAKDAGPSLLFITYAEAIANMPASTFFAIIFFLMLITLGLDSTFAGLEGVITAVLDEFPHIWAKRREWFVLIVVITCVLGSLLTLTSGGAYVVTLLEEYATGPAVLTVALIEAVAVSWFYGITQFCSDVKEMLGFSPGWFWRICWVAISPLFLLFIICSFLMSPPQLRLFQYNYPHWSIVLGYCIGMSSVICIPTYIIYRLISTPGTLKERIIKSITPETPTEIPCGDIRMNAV
measurementNotes: Serotonin uptake inhibition (5HT uptake) in synaptosomes
Assay type: biochemical
appliedConditions: rat brain synaptosomes
Numbers only here, please. The scale is %.

Use the examples below as a reference point.
| smi | recordedEndpoint | valueReported |
| --- | --- | --- |
| CN(C)S(=O)(=O)N1CCC2(CC1)CC(C(=O)NCCc1ccc(Cl)cc1)=NO2 | inhibition at 10 µM | 55 |
| O=C(NCc1cccs1)C1=NOC2(CCN(C(=O)c3ccccc3Cl)CC2)C1 | inhibition at 10 µM | 41 |
| CCCS(=O)(=O)N1CCC2(CC1)CC(C(=O)NCC(C)C)=NO2 | inhibition at 10 µM | 42 |

# next compound below
Request: Look up inhibition at 10 µM: CCOC(=O)N1CCC(NC(=O)C2=NOC3(CCN(S(=O)(=O)c4cc([N+](=O)[O-])ccc4C)CC3)C2)CC1
Response: 48

###

measurementTarget: NA transporter (Rattus norvegicus, UniProt Q9WTR4)
Construct: synaptosomes from rat brain regions were freshly isolated; from tissue; host or cells: P2 synaptosome fraction from hypothalamus of male rat brain
Sequence (Q9WTR4 1-597): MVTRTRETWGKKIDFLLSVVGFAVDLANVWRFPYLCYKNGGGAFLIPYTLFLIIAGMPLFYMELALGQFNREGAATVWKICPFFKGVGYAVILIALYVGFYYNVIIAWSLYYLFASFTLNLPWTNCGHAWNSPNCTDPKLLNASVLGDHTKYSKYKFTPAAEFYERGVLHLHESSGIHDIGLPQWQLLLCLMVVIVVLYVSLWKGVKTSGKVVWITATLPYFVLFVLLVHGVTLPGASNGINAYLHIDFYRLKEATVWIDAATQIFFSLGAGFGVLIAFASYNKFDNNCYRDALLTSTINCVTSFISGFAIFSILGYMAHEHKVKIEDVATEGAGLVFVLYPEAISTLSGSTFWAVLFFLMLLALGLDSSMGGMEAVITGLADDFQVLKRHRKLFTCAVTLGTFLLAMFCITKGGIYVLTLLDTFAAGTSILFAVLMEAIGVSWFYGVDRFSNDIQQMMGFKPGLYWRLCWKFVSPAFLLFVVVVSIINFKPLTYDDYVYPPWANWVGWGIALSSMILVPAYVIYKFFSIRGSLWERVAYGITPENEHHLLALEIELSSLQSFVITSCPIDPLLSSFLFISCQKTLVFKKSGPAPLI
measurementNotes: Noradrenalin uptake inhibition (NA-uptake) in synaptosomes
Assay type: biochemical
appliedConditions: rat hypothalamus synaptosomes
# key: entry, value: inhibition at 10 µM
Numbers only here, please. The scale is %.

Use the examples below as a reference point.
| compound | valueReported |
| --- | --- |
| Cc1ccc(S(=O)(=O)N2CCC3(CC2)CC(C(=O)NC2CC2c2ccccc2)=NO3)cc1 (stereo not shown) | 65 |
| N#CCCN(CCc1ccccn1)C(=O)C1=NOC2(CCN(S(=O)(=O)c3ccc(F)cc3)CC2)C1 | 63 |
| Cc1onc(-c2c(Cl)cccc2Cl)c1C(=O)N1CCC2(CC1)CC(C(=O)NCc1cccs1)=NO2 | 41 |

# next compound below
Request: Look up inhibition at 10 µM: O=C(NCc1ccccc1)C1=NOC2(CCN(C(=O)COc3cccc(Cl)c3)CC2)C1
Response: 53

###

# key: entry, value: inhibition at 10 µM
measurementTarget: 5HT-uptake (Rattus norvegicus)
Construct: synaptosomes from rat brain regions were freshly isolated; from tissue; host or cells: P2 synaptosome fraction from rat brain regions
measurementNotes: Serotonin uptake inhibition (5HT uptake) in synaptosomes
Type: biochemical
appliedConditions: rat brain synaptosomes
Numbers only here, please. The scale is %.

Use the examples below as a reference point.
| molecule | resultUnits | valueReported |
| --- | --- | --- |
| Cc1ccc(S(=O)(=O)N2CCC3(CC2)CC(C(=O)N(CCC#N)Cc2ccccc2)=NO3)cc1 [Example 28] | % | 43 |
| CN(C)S(=O)(=O)N1CCC2(CC1)CC(C(=O)N1CCN(Cc3ccc4ccccc4c3)CC1)=NO2 [Example 65] | % | 81 |
| Cc1ccc([N+](=O)[O-])cc1S(=O)(=O)N1CCC2(CC1)CC(C(=O)NCCN(C)C)=NO2 [Example 19] | % | 80 |

Request: Find the measured inhibition at 10 µM: item O=C(NC(c1ccccc1)c1ccccc1)C1=NOC2(CCN(S(=O)(=O)c3ccc(Cl)s3)CC2)C1 [Example 40] , target or system 5HT-uptake (Rattus norvegicus).
Response: 45

Request: Find the measured inhibition at 10 µM: item O=C(NC1CCN(Cc2ccc3ccccc3c2)C1)C1=NOC2(CCN(S(=O)(=O)c3ccc(Cl)s3)CC2)C1 (stereo not drawn) [Example 50] , target or system 5HT-uptake (Rattus norvegicus).
Response: 57

Request: Find the measured inhibition at 10 µM: item O=C(NCc1cccs1)C1=NOC2(CCN(S(=O)(=O)c3ccccc3Cl)CC2)C1 [Example 156] , target or system 5HT-uptake (Rattus norvegicus).
Response: 41

Request: Find the measured inhibition at 10 µM: item Cc1ccc(S(=O)(=O)N2CCC3(CC2)CC(C(=O)NCc2cc(Cl)cc(Cl)c2)=NO3)cc1 [Example 63] , target or system 5HT-uptake (Rattus norvegicus).
Response: 55

Request: Find the measured inhibition at 10 µM: item CCN(CC)c1ccc(C(=O)NNC(=O)C2=NOC3(CCN(S(=O)(=O)c4cccs4)CC3)C2)cc1 [Example 10] , target or system 5HT-uptake (Rattus norvegicus).
Response: 40

Request: Find the measured inhibition at 10 µM: item Cc1ccc(S(=O)(=O)N2CCC3(CC2)CC(C(=O)NC2CCCC2OCc2ccccc2)=NO3)cc1 (stereo not drawn) [Example 67] , target or system 5HT-uptake (Rattus norvegicus).
Response: 58

Request: Find the measured inhibition at 10 µM: item O=C(C1=NOC2(CCN(S(=O)(=O)c3cccc(C(F)(F)F)c3)CC2)C1)N1CCN(CCCc2ccccc2)CC1 [Example 83] , target or system 5HT-uptake (Rattus norvegicus).
Response: 52

Request: Find the measured inhibition at 10 µM: item CCOC(=O)CCNC(=O)C1=NOC2(CCN(S(=O)(=O)CC34CCC(CC3=O)C4(C)C)CC2)C1 (stereo not drawn) [Example 66] , target or system 5HT-uptake (Rattus norvegicus).
Response: 40

Request: Find the measured inhibition at 10 µM: item O=C(NCc1cc(F)cc(C(F)(F)F)c1)C1=NOC2(CCN(S(=O)(=O)c3cc(Cl)ccc3Cl)CC2)C1 [Example 39] , target or system 5HT-uptake (Rattus norvegicus).
Response: 65

Request: Find the measured inhibition at 10 µM: item CN(C)c1cccc(C(=O)N2CCC3(CC2)CC(C(=O)NCCC#N)=NO3)c1 [Example 43] , target or system 5HT-uptake (Rattus norvegicus).
Response: 41

Request: Find the measured inhibition at 10 µM: item CC(NC(=O)C1=NOC2(CCN(S(=O)(=O)c3cccs3)CC2)C1)c1cccc2c1OCCO2 (stereo not drawn) [Example 84] , target or system 5HT-uptake (Rattus norvegicus).
Response: 68

Request: Find the measured inhibition at 10 µM: item Cc1ccc(CNC(=O)C2=NOC3(CCN(C(=O)c4ccc(Br)cc4)CC3)C2)o1 [Example 109] , target or system 5HT-uptake (Rattus norvegicus).
Response: 56

###

# key: entry, value: inhibition at 10 µM
measurementTarget: NA transporter (Rattus norvegicus)
Construct: synaptosomes from rat brain regions were freshly isolated; from tissue; host or cells: P2 synaptosome fraction from hypothalamus of male rat brain
measurementNotes: Noradrenalin uptake inhibition (NA-uptake) in synaptosomes
Format: biochemical
appliedConditions: rat hypothalamus synaptosomes
Numbers only here, please. The scale is %.

Use the examples below as a reference point.
| compound | measurementTarget | inhibition at 10 µM (%) |
| --- | --- | --- |
| COc1ccc(S(=O)(=O)N2CCC3(CC2)CC(C(=O)NC2CC2c2ccccc2)=NO3)cc1 (stereo not shown) | NA transporter (Rattus norvegicus) | 73 |
| O=C(NC1CCCC1)C1=NOC2(CCN(C(=O)c3cccnc3Oc3ccccc3)CC2)C1 | NA transporter (Rattus norvegicus) | 45 |
| O=C(NCc1ccccc1)C1=NOC2(CCN(C(=O)c3cccnc3Oc3ccccc3)CC2)C1 | NA transporter (Rattus norvegicus) | 58 |
| O=C(NCC1COc2ccccc2O1)C1=NOC2(CCN(S(=O)(=O)c3cccs3)CC2)C1 (stereo not shown) | NA transporter (Rattus norvegicus) | 61 |
| CN(C)S(=O)(=O)N1CCC2(CC1)CC(C(=O)N1CCN(Cc3ccc4ccccc4c3)CC1)=NO2 | NA transporter (Rattus norvegicus) | 63 |
| Cc1ccc(C(C)NC(=O)C2=NOC3(CCN(S(=O)(=O)c4ccc(C)cc4)CC3)C2)cc1 (stereo not shown) | NA transporter (Rattus norvegicus) | 59 |
| CN(C)S(=O)(=O)N1CCC2(CC1)CC(C(=O)N1CCN(Cc3ccc(C(C)(C)C)cc3)CC1)=NO2 | NA transporter (Rattus norvegicus) | 45 |
| O=C(C1=NOC2(CCN(S(=O)(=O)Cc3ccccc3)CC2)C1)N1CC=C(c2ccc(F)cc2)CC1 | NA transporter (Rattus norvegicus) | 42 |
| O=C(C1=NOC2(CCN(S(=O)(=O)Cc3ccccc3)CC2)C1)N1CCN(c2ccccn2)CC1 | NA transporter (Rattus norvegicus) | 51 |
| O=C(NCCCn1ccnc1)C1=NOC2(CCN(S(=O)(=O)c3ccc(F)cc3)CC2)C1 | NA transporter (Rattus norvegicus) | 49 |

Request: Look up inhibition at 10 µM: CN(C)S(=O)(=O)N1CCC2(CC1)CC(C(=O)N1CCN(CCCc3ccccc3)CC1)=NO2
Response: 60

Request: Look up inhibition at 10 µM: Cc1ccccc1N1CCN(C(=O)C2=NOC3(CCN(S(=O)(=O)c4cccs4)CC3)C2)CC1
Response: 80

Request: Look up inhibition at 10 µM: CC(NC(=O)C1=NOC2(CCN(S(=O)(=O)c3ccc(Cl)s3)CC2)C1)c1cccc2c1OCCO2 (stereo not shown)
Response: 83

Request: Look up inhibition at 10 µM: O=C(NCC1CC1)C1=NOC2(CCN(C(=O)CCCOc3ccccc3)CC2)C1
Response: 46

Request: Look up inhibition at 10 µM: O=C(NCCc1ccc(F)cc1)C1=NOC2(CCN(S(=O)(=O)c3ccc(OC(F)(F)F)cc3)CC2)C1
Response: 43

Request: Look up inhibition at 10 µM: O=C(NC1CCCC1)C1=NOC2(CCN(C(=O)c3ccc([N+](=O)[O-])cc3Cl)CC2)C1
Response: 53

All values here come from patent US8557796B2.
